Origin of the recorded values: patent US20220380471A1

Target: T1, B7H3 (CD276) on MC38-CD276+ cells
T1 construct: whole, on cells; MC38-CD276KO cells served as the negative control; also called MC38-B7H3+
T1 sequence (Q5ZPR3 1-534, species assumed, looked up): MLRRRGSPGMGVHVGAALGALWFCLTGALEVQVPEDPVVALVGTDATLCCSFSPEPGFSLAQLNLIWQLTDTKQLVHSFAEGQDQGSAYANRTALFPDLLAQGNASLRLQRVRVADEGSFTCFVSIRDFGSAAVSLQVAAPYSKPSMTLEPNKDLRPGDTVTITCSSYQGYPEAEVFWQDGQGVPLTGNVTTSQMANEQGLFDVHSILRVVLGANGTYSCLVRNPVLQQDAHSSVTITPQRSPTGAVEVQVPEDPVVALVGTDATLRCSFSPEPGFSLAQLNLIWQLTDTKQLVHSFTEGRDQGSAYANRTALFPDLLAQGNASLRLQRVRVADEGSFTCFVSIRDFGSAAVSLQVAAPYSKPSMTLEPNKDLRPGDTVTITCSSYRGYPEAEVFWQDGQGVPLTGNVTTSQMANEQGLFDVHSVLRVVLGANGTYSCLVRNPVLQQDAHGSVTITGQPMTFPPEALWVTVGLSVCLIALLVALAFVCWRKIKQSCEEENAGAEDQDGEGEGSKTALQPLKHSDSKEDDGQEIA
Experiment: flow cytometry on MC38-CD276+ cells, VHH at 0.5 ug/ml
endpoint: Positive rates (%)
Supply the numeric figure in %, leaving out any unit text.

// solved cases for Positive rates follow
INSERT INTO measurements (binder, endpoint, test_result) VALUES
  ('RWG4 (VHH, Camel VHH; tag not described; also called camel antibody RWG4) VHH: QVQLVQSGGGLVQPGGSLRLSCAASGFTFSVYWFYWVRQAPRQGLEWVSTIASNGSTYYSDSVKGRFTISRDNAKNTVYLQMNSLKPEDTAVYYCVSDPDYYSDYERAYKFWAQGTQVTVSS', 'Positive rates', 1.25),
  ('RWD5 (VHH, Camel VHH; tag not described; also called RWDS [sic]; camel antibody RWD5) VHH: AVQLVESGGGLVQPGGSLSVSCAASGFTFSVYWFYWVRQAPRQGLEWVSTIASNGSTYYSDSVKGRFTISRDNAKNTVYLQMNSLKPEDTAVYYCVSDPDYYSDYEREYKFWAQGTQVTVSS', 'Positive rates', 0.19);

Now take the following binder into account.
May I ask what Positive rates has been recorded for RWB12 (VHH, Camel VHH; tag not described; also called camel antibody RWB12) VHH: QVQLVESGGGSVQVGGSLRLSCAASGFTYNSYSVGWFRQAPGKEREGVAAINSGGSSTYYAASVKGRFTISRDNAKNTVYLQMNSLKPEDTAMYYCAARSPSPLTFQTRTLREDSYNYWGQGTQVTVSS ? 0.23
